Hello, the source for this data is ChEMBL document CHEMBL3885861, in case you need it.

- Organism: Rattus norvegicus
- run.description: Open TG-GATES - Regimen: Daily Repeat
- Format: toxicity, organism-based, Sprague-Dawley
- Set-up: regimen Daily Repeat, gender Male, age 6 weeks
- assay.setup: in vivo, po, 0 mg/kg, […], tissue Plasma, route gavage, dose level Control, time 28 day
attribute.measured: Na (meq/L)

| compound | unit.string | obs.value |
| --- | --- | --- |
| CC(=O)Nc1nnc(S(N)(=O)=O)s1 [ACETAZOLAMIDE] | meq/L | 142.6 |
| O=C(O)Cc1ccccc1Nc1c(Cl)cccc1Cl | meq/L | 140.4 |
| Clc1c(Cl)c(Cl)c(Cl)c(Cl)c1Cl | meq/L | 140 |
| C1CCC(C(CC2CCCCN2)C2CCCCC2)CC1 (stereo not given) | meq/L | 143.6 |
| CN(C)[C@@H]1C(O)=C(C(N)=O)C(=O)[C@@]2(O)C(O)=C3C(=O)c4c(O)cccc4[C@@](C)(O)[C@H]3C[C@@H]12 | meq/L | 140 |

====

- Species: Rattus norvegicus
- run.description: Open TG-GATES - Regimen: Single
- Type: toxicity, organism-based, Sprague-Dawley
- Set-up: regimen Single, gender Male, age 6 weeks
- assay.setup: in vivo, po, 0 mg/kg, 3 h, tissue Plasma, route gavage, dose level Control
Catalogue of K readings, one per entry.
attribute.measured: K (meq/L)

| compound | attribute.measured | obs.value |
| --- | --- | --- |
| Clc1c(Cl)c(Cl)c(Cl)c(Cl)c1Cl [PERCHLOROBENZENE] | K | 4 |
| CCOC(=O)[C@H](CCc1ccccc1)N[C@@H](C)C(=O)N1CCC[C@H]1C(=O)O | K | 4.8 |
| C#C[C@]1(O)CC[C@H]2[C@@H]3CCC4=Cc5oncc5C[C@]4(C)[C@H]3CC[C@@]21C [DANAZOL] | K | 4.1 |
| CC(CN1c2ccccc2Sc2ccccc21)N(C)C (configuration not stated) [PROMETHAZINE] | K | 4.4 |
| CN1C(C(=O)Nc2ccccn2)=C(O)c2sc(Cl)cc2S1(=O)=O [LORNOXICAM] | K | 3.7 |
| CC(=O)Nc1nnc(S(N)(=O)=O)s1 [ACETAZOLAMIDE] | K | 4 |
| C1CCC(C(CC2CCCCN2)C2CCCCC2)CC1 (configuration not stated) [PERHEXILINE] | K | 4.2 |

====

- Species: Rattus norvegicus
- run.description: Open TG-GATES - Regimen: Single
- Type: toxicity, organism-based, Sprague-Dawley
- Set-up: regimen Single, gender Male, age 6 weeks
- assay.setup: in vivo, po, 0 mg/kg, 9 h, tissue Plasma, route gavage, dose level Control
attribute.measured: BUN (mg/dL)

| compound | unit.string | obs.value |
| --- | --- | --- |
| Clc1c(Cl)c(Cl)c(Cl)c(Cl)c1Cl [PERCHLOROBENZENE] | mg/dL | 9.4 |
| CN1C(C(=O)Nc2ccccn2)=C(O)c2sc(Cl)cc2S1(=O)=O [LORNOXICAM] | mg/dL | 9.8 |
| CN(C)[C@@H]1C(O)=C(C(N)=O)C(=O)[C@@]2(O)C(O)=C3C(=O)c4c(O)cccc4[C@@](C)(O)[C@H]3C[C@@H]12 [TETRACYCLINE] | mg/dL | 10.6 |
| CCOC(=O)[C@H](CCc1ccccc1)N[C@@H](C)C(=O)N1CCC[C@H]1C(=O)O | mg/dL | 13.6 |
| CC(CN1c2ccccc2Sc2ccccc21)N(C)C (stereo not given) [PROMETHAZINE] | mg/dL | 12.4 |
| Cc1cccc(Nc2ccccc2C(=O)O)c1C [MEFENAMIC ACID] | mg/dL | 10.6 |
| C#C[C@]1(O)CC[C@H]2[C@@H]3CCC4=Cc5oncc5C[C@]4(C)[C@H]3CC[C@@]21C [DANAZOL] | mg/dL | 11.2 |
| COc1cc([C@@H]2c3cc4c(cc3[C@@H](O[C@@H]3O[C@@H]5CO[C@@H](C)O[C@H]5[C@H](O)[C@H]3O)[C@H]3COC(=O)[C@H]23)OCO4)cc(OC)c1O [ETOPOSIDE] | mg/dL | 10.4 |
| CC(=O)Nc1nnc(S(N)(=O)=O)s1 [ACETAZOLAMIDE] | mg/dL | 11 |
| C1CCC(C(CC2CCCCN2)C2CCCCC2)CC1 (stereo not given) [PERHEXILINE] | mg/dL | 11.4 |

====

- Species: Rattus norvegicus
- run.description: Open TG-GATES - Regimen: Daily Repeat
- Assay type: toxicity, organism-based, Sprague-Dawley
- Design: regimen Daily Repeat, gender Male, age 6 weeks
- assay.setup: in vivo, po, 0 mg/kg, […], tissue Blood, route gavage, dose level Control, time 28 day
Listed below: Ht values for each entry.

| compound | Ht |
| --- | --- |
| CN1C(C(=O)Nc2ccccn2)=C(O)c2sc(Cl)cc2S1(=O)=O [LORNOXICAM] | 45.2% |
| CN(C)[C@@H]1C(O)=C(C(N)=O)C(=O)[C@@]2(O)C(O)=C3C(=O)c4c(O)cccc4[C@@](C)(O)[C@H]3C[C@@H]12 [TETRACYCLINE] | 43.9% |
| Clc1c(Cl)c(Cl)c(Cl)c(Cl)c1Cl [PERCHLOROBENZENE] | 45.9% |
| CCOC(=O)[C@H](CCc1ccccc1)N[C@@H](C)C(=O)N1CCC[C@H]1C(=O)O | 46.4% |
| C1CCC(C(CC2CCCCN2)C2CCCCC2)CC1 (centres undefined) [PERHEXILINE] | 38.5% |
| CC(=O)Nc1nnc(S(N)(=O)=O)s1 [ACETAZOLAMIDE] | 44% |
| CC(CN1c2ccccc2Sc2ccccc21)N(C)C (centres undefined) [PROMETHAZINE] | 43.8% |
| Cc1cccc(Nc2ccccc2C(=O)O)c1C [MEFENAMIC ACID] | 43.8% |
| C#C[C@]1(O)CC[C@H]2[C@@H]3CCC4=Cc5oncc5C[C@]4(C)[C@H]3CC[C@@]21C [DANAZOL] | 42.9% |

====

- Species on record: Rattus norvegicus
- run.description: Open TG-GATES - Regimen: Daily Repeat
- Format: toxicity, organism-based, Sprague-Dawley
- Set-up: regimen Daily Repeat, gender Male, age 6 weeks
- assay.setup: in vivo, po, 0 mg/kg, 72 h, tissue Blood, route gavage, dose level Control, time 3 day

| smi | WBC / x10_2/uL |
| --- | --- |
| CN1C(C(=O)Nc2ccccn2)=C(O)c2sc(Cl)cc2S1(=O)=O | 110.2 |
| Cc1cccc(Nc2ccccc2C(=O)O)c1C | 105.7 |
| CCOC(=O)[C@H](CCc1ccccc1)N[C@@H](C)C(=O)N1CCC[C@H]1C(=O)O | 111.6 |
| CN(C)[C@@H]1C(O)=C(C(N)=O)C(=O)[C@@]2(O)C(O)=C3C(=O)c4c(O)cccc4[C@@](C)(O)[C@H]3C[C@@H]12 | 111.7 |

====

- Organism: Rattus norvegicus
- run.description: Open TG-GATES - Regimen: Daily Repeat
- Assay type: toxicity, organism-based, Sprague-Dawley
- Set-up: regimen Daily Repeat, gender Male, age 6 weeks
- assay.setup: in vivo, po, 0 mg/kg, […], tissue Blood, route gavage, dose level Control, time 14 day
attribute.measured: MCHC (%)

| compound | obs.value |
| --- | --- |
| CCOC(=O)[C@H](CCc1ccccc1)N[C@@H](C)C(=O)N1CCC[C@H]1C(=O)O | 33.3 |
| Clc1c(Cl)c(Cl)c(Cl)c(Cl)c1Cl | 33.5 |
| Cc1cccc(Nc2ccccc2C(=O)O)c1C | 35.2 |
| CC(=O)Nc1nnc(S(N)(=O)=O)s1 [ACETAZOLAMIDE] | 35.3 |
| C1CCC(C(CC2CCCCN2)C2CCCCC2)CC1 (stereo not given) | 35.2 |
| CC(CN1c2ccccc2Sc2ccccc21)N(C)C (stereo not given) | 34 |
| CN1C(C(=O)Nc2ccccn2)=C(O)c2sc(Cl)cc2S1(=O)=O | 34 |
| O=C(O)Cc1ccccc1Nc1c(Cl)cccc1Cl | 35.9 |
| C#C[C@]1(O)CC[C@H]2[C@@H]3CCC4=Cc5oncc5C[C@]4(C)[C@H]3CC[C@@]21C | 34.9 |
| CN(C)[C@@H]1C(O)=C(C(N)=O)C(=O)[C@@]2(O)C(O)=C3C(=O)c4c(O)cccc4[C@@](C)(O)[C@H]3C[C@@H]12 | 33.5 |

====

- Species: Rattus norvegicus
- run.description: Open TG-GATES - Regimen: Daily Repeat
- Format: toxicity, organism-based, Sprague-Dawley
- Set-up: regimen Daily Repeat, gender Male, age 6 weeks
- assay.setup: in vivo, po, 0 mg/kg, 72 h, tissue Plasma, route gavage, dose level Control, time 3 day
Let's look at some compounds and their measured TP.

| compound | unit.string | TP |
| --- | --- | --- |
| Cc1cccc(Nc2ccccc2C(=O)O)c1C | g/dL | 5.6 |
| C#C[C@]1(O)CC[C@H]2[C@@H]3CCC4=Cc5oncc5C[C@]4(C)[C@H]3CC[C@@]21C | g/dL | 5.5 |
| O=C(O)Cc1ccccc1Nc1c(Cl)cccc1Cl | g/dL | 5.6 |
| CN(C)[C@@H]1C(O)=C(C(N)=O)C(=O)[C@@]2(O)C(O)=C3C(=O)c4c(O)cccc4[C@@](C)(O)[C@H]3C[C@@H]12 | g/dL | 5.8 |
| CN1C(C(=O)Nc2ccccn2)=C(O)c2sc(Cl)cc2S1(=O)=O | g/dL | 5.6 |
| CCOC(=O)[C@H](CCc1ccccc1)N[C@@H](C)C(=O)N1CCC[C@H]1C(=O)O | g/dL | 5.9 |
| CC(=O)Nc1nnc(S(N)(=O)=O)s1 [ACETAZOLAMIDE] | g/dL | 5.5 |
| C1CCC(C(CC2CCCCN2)C2CCCCC2)CC1 (stereo not given) | g/dL | 5.8 |
| Clc1c(Cl)c(Cl)c(Cl)c(Cl)c1Cl | g/dL | 5.8 |
| CC(CN1c2ccccc2Sc2ccccc21)N(C)C (stereo not given) | g/dL | 5.5 |
